Attribution: ChEMBL document CHEMBL4831541

Tested on: Staphylococcus aureus
Assay: Antibacterial activity against Staphylococcus aureus DSM11822 assessed as growth inhibition by measuring minimal concentration at OD600 by visual inspection with iron-limited media incubated for 24 hrs
Type: functional
READOUT_TYPE: MIC

Below, each entry is followed by its recorded MIC result.
CC(=O)Oc1cccc(C(=O)NCc2cc(CNC(=O)c3cccc(OC(C)=O)c3OC(C)=O)c(NC(=O)CCCc3cn(CCC(=O)N[C@@H](C(=O)N[C@@H]4C(=O)N5[C@@H]4SC(C)(C)[C@@H]5C(=O)O)c4ccc(O)cc4)nn3)c(CNC(=O)c3cccc(OC(C)=O)c3OC(C)=O)c2)c1OC(C)=O; > 46 µM
CC1(C)S[C@@H]2[C@H](NC(=O)[C@H](NC(=O)CCn3cc(CCCC(=O)Nc4c(CNC(=O)c5cccc(O)c5O)cc(CNC(=O)c5cccc(O)c5O)cc4CNC(=O)c4cccc(O)c4O)nn3)c3ccc(O)cc3)C(=O)N2[C@H]1C(=O)O; > 56 µM
CC1(C)S[C@@H]2[C@H](NC(=O)[C@H](N)c3ccccc3)C(=O)N2[C@H]1C(=O)O [AMPICILLIN]; > 183 µM

## Task Entry CC(=O)Oc1cccc(C(=O)NCc2cc(CNC(=O)c3cccc(OC(C)=O)c3OC(C)=O)c(NC(=O)CCOCCOCCOCCOCc3cn(CCC(=O)N[C@@H](C(=O)N[C@@H]4C(=O)N5[C@@H]4SC(C)(C)[C@@H]5C(=O)O)c4ccccc4)nn3)c(CNC(=O)c3cccc(OC(C)=O)c3OC(C)=O)c2)c1OC(C)=O has what MIC?
## Result > 64 µM

---

Tested on: Escherichia coli
Test: Antibacterial activity against Escherichia coli BW25113 assessed as growth inhibition by measuring minimal concentration at OD600 by visual inspection with iron-limited media incubated for 24 hrs
Assay type: functional
Rule: measured MIC below 0.9 µM gets 1.0; anything equal to or greater than 0.9 µM gets 0.0.

CC(=O)Oc1cccc(C(=O)NCc2cc(CNC(=O)c3cccc(OC(C)=O)c3OC(C)=O)c(NC(=O)CCOCCOCCOCCOCc3cn(CCC(=O)N[C@@H](C(=O)N[C@@H]4C(=O)N5[C@@H]4SC(C)(C)[C@@H]5C(=O)O)c4ccccc4)nn3)c(CNC(=O)c3cccc(OC(C)=O)c3OC(C)=O)c2)c1OC(C)=O; 1.0
CC1(C)S[C@@H]2[C@H](NC(=O)[C@H](NC(=O)CCn3cc(CCCC(=O)Nc4c(CNC(=O)c5cccc(O)c5O)cc(CNC(=O)c5cccc(O)c5O)cc4CNC(=O)c4cccc(O)c4O)nn3)c3ccc(O)cc3)C(=O)N2[C@H]1C(=O)O; 1.0
CC(C)(O/N=C(\C(=O)N[C@@H]1C(=O)N2C(C(=O)[O-])=C(C[N+]3(CCNC(=O)c4ccc(O)c(O)c4Cl)CCCC3)CS[C@H]12)c1csc(N)n1)C(=O)O; 1.0
CC1(C)S[C@@H]2[C@H](NC(=O)[C@H](N)c3ccccc3)C(=O)N2[C@H]1C(=O)O; 0.0
CCCCCCCCCC(=O)N[C@@H](Cc1c[nH]c2ccccc12)C(=O)N[C@H](CC(N)=O)C(=O)N[C@@H](CC(=O)O)C(=O)N[C@@H]1C(=O)NCC(=O)N[C@@H](CCCNC(=O)CCCCCn2cc(CCCC(=O)Nc3c(CNC(=O)c4cccc(O)c4O)cc(CNC(=O)c4cccc(O)c4O)cc3CNC(=O)c3cccc(O)c3O)nn2)C(=O)N[C@@H](CC(=O)O)C(=O)N[C@H](C)C(=O)N[C@@H](CC(=O)O)C(=O)NCC(=O)N[C@H](CO)C(=O)N[C@@H]([C@@H](C)CC(=O)O)C(=O)N[C@@H](CC(=O)c2ccccc2N)C(=O)O[C@@H]1C; 0.0
CC(=O)Oc1cccc(C(=O)NCc2cc(CNC(=O)c3cccc(OC(C)=O)c3OC(C)=O)c(NC(=O)CCCc3cn(CCC(=O)N[C@@H](C(=O)N[C@@H]4C(=O)N5[C@@H]4SC(C)(C)[C@@H]5C(=O)O)c4ccccc4)nn3)c(CNC(=O)c3cccc(OC(C)=O)c3OC(C)=O)c2)c1OC(C)=O; 1.0
CCCCCCCCCC(=O)N[C@@H](Cc1c[nH]c2ccccc12)C(=O)N[C@H](CC(N)=O)C(=O)N[C@@H](CC(=O)O)C(=O)N[C@@H]1C(=O)NCC(=O)N[C@@H](CCCN)C(=O)N[C@@H](CC(=O)O)C(=O)N[C@H](C)C(=O)N[C@@H](CC(=O)O)C(=O)NCC(=O)N[C@H](CO)C(=O)N[C@@H]([C@H](C)CC(=O)O)C(=O)N[C@@H](CC(=O)c2ccccc2N)C(=O)O[C@@H]1C; 0.0
CC(=O)Oc1cccc(C(=O)NCc2cc(CNC(=O)c3cccc(OC(C)=O)c3OC(C)=O)c(NC(=O)CCCc3cn(CCC(=O)N[C@@H](C(=O)N[C@@H]4C(=O)N5[C@@H]4SC(C)(C)[C@@H]5C(=O)O)c4ccc(O)cc4)nn3)c(CNC(=O)c3cccc(OC(C)=O)c3OC(C)=O)c2)c1OC(C)=O; 0.0

Now consider a different molecule.
## Task For this molecule, is MIC lower than 0.9 µM? CC1(C)S[C@@H]2[C@H](NC(=O)[C@H](N)c3ccc(O)cc3)C(=O)N2[C@H]1C(=O)O
## Result 0.0

---

Test system: Staphylococcus aureus
Assay: Antibacterial activity against Staphylococcus aureus DSM11822 assessed as growth inhibition by measuring minimal concentration at OD600 by visual inspection with iron-limited media incubated for 24 hrs
Format: functional
READOUT_TYPE: MIC

## Task Entry CC1(C)S[C@@H]2[C@H](NC(=O)[C@H](N)c3ccc(O)cc3)C(=O)N2[C@H]1C(=O)O [AMOXICILLIN] has what MIC?
## Result > 175 µM
